The origin of these recorded values is paper PMC11995724.

ASSAY_NAME: in vitro
TEST_PARAMETERS: human, hek293t cells
# label = bin(measured viability at 48 h, 25 µM), where bins are low end (below 50%), middle (50% to below 90%), high end (90% or more)

[
  {
    "COMPOUND": "O=C(CCl)NCC(=O)Nc1ccc(F)c(F)c1F [4-D18]",
    "CLASSIFICATION": "low end"
  },
  {
    "COMPOUND": "C=CC(=O)N1CCCN(C(=O)c2ccc(OC)cc2)CC1 [3-A21]",
    "CLASSIFICATION": "middle"
  },
  {
    "COMPOUND": "CN(CC(=O)Nc1c(Cl)cccc1Cl)C(=O)CCl [6-M05]",
    "CLASSIFICATION": "low end"
  },
  {
    "COMPOUND": "CCc1nc(C2CCCN2C(=O)CCl)no1 (centres unmarked) [5-C08]",
    "CLASSIFICATION": "low end"
  },
  {
    "COMPOUND": "CN1C(=O)C(=C(C#N)C(=O)NCc2ccc(Cl)cc2)c2ccccc21 [8-K17]",
    "CLASSIFICATION": "middle"
  },
  {
    "COMPOUND": "C=CCNC(=O)C(C#N)=CC=Cc1ccccc1 [9-J08]",
    "CLASSIFICATION": "high end"
  },
  {
    "COMPOUND": "CC1CCCCC1NC(=O)C(C#N)=Cc1ccc(N2CCOCC2)cc1 (centres unmarked) [8-I06]",
    "CLASSIFICATION": "middle"
  },
  {
    "COMPOUND": "CC1CN(C(=O)C(C#N)=Cc2ccc(OC(F)F)cc2)CC(C)O1 (centres unmarked) [8-G05]",
    "CLASSIFICATION": "high end"
  },
  {
    "COMPOUND": "C=CC(=O)NCCC(=O)N1CCC(c2ncccn2)CC1 [3-M17]",
    "CLASSIFICATION": "middle"
  }
]

----------
ASSAY_NAME: in vitro
TEST_PARAMETERS: human, hek293t cells
# label = bin(measured viability at 48 h, 25 µM), where bins are lower level (below 7%), middle level (7% to below 90%), upper level (90% or more)

[
  {
    "COMPOUND": "CCSc1nnc(NC(=O)CCl)s1",
    "CLASSIFICATION": "middle level"
  },
  {
    "COMPOUND": "CC(c1cnn(C)c1)N(C)C(=O)CCl (stereo not drawn)",
    "CLASSIFICATION": "lower level"
  },
  {
    "COMPOUND": "CC(Cl)C(=O)NCc1ncnn1C(C)C (stereo not drawn)",
    "CLASSIFICATION": "upper level"
  },
  {
    "COMPOUND": "O=C(CCl)Nc1ccccc1C(=O)Nc1ccc(F)cc1",
    "CLASSIFICATION": "lower level"
  },
  {
    "COMPOUND": "O=C(CCl)N(Cc1ccc(Cl)c([N+](=O)[O-])c1)c1ccccc1",
    "CLASSIFICATION": "lower level"
  },
  {
    "COMPOUND": "O=C(CCl)NCCCc1ccccc1 [4-N04, 2-chloro-N-(3-phenylpropyl)acetamide]",
    "CLASSIFICATION": "middle level"
  },
  {
    "COMPOUND": "C=CC(=O)N1CCC(C(=O)N[C@H]2CCCCCC[C@H]2C(=O)OC)CC1 (racemic)",
    "CLASSIFICATION": "upper level"
  },
  {
    "COMPOUND": "O=C(CCl)NCc1ccccc1S(=O)(=O)N1CCOCC1",
    "CLASSIFICATION": "lower level"
  },
  {
    "COMPOUND": "COc1ccc(C=C(C#N)C(=O)Nc2ccc(C(=O)O)cc2)cc1O",
    "CLASSIFICATION": "upper level"
  },
  {
    "COMPOUND": "C=CC(=O)N1CCC(C(=O)NC2CCc3ncnn3C2)CC1 (stereo not drawn)",
    "CLASSIFICATION": "upper level"
  },
  {
    "COMPOUND": "c1nc(N2CCSSCC2)c2c3c(sc2n1)CCCC3",
    "CLASSIFICATION": "middle level"
  },
  {
    "COMPOUND": "C=CC(=O)NC1(c2ccc(C(F)(F)F)cc2)CCCC1",
    "CLASSIFICATION": "middle level"
  },
  {
    "COMPOUND": "Cc1ccc(C(=O)C(C)Cl)cc1 (stereo not drawn)",
    "CLASSIFICATION": "middle level"
  },
  {
    "COMPOUND": "COc1cccc(NC(=O)C(C#N)=Cc2ccc(O)cc2)c1",
    "CLASSIFICATION": "middle level"
  },
  {
    "COMPOUND": "CCN(C(=O)CCl)C1CCCCC1 [5-D11, 2-chloro-N-cyclohexyl-N-ethylacetamide]",
    "CLASSIFICATION": "lower level"
  },
  {
    "COMPOUND": "N#CC(=Cc1ccc(O)c(O)c1)C(=O)Nc1cccc(Cl)c1Cl",
    "CLASSIFICATION": "middle level"
  },
  {
    "COMPOUND": "O=C(CCl)Nc1cccnn1",
    "CLASSIFICATION": "upper level"
  },
  {
    "COMPOUND": "Cc1c(Cl)cccc1NC(=O)C(C#N)=Cc1cccs1",
    "CLASSIFICATION": "upper level"
  },
  {
    "COMPOUND": "CC(C)Oc1ccccc1C=C(C#N)C(=O)Nc1cccc(Cl)c1",
    "CLASSIFICATION": "upper level"
  },
  {
    "COMPOUND": "Cc1cc(CN(C(=O)CCl)c2csnc2C)cs1",
    "CLASSIFICATION": "lower level"
  }
]
